// data source = ChEMBL document CHEMBL3399948

Assay: AUC (0 to 24 hrs) in Wistar rat at 1 mg/kg, iv
Assay type: ADME, organism-based
Set-up: time < 24 hr, dose 1 mg/kg, route intravenous
Details: plasma
readout_label: AUC(0-t) at 24 h (ng·h/mL)
One number for each entry, in ng·h/mL.

COc1cc(C)c(-c2cnc3[nH]c(-c4c(F)cccc4Cl)cc3c2)cn1 ... 596

Next compound, AUC(0-t) at 24 h to be filled in.
Asked: What measured AUC(0-t) at 24 h goes with `COc1cc(OC)c(-c2cnc3[nH]c(-c4c(F)cccc4Cl)cc3c2)cn1` ?
Given back: 1820
